system: Nakaseomyces glabratus; assay: Antimicrobial activity against Candida glabrata MTCC 3019 assessed as growth inhibition after 24 hrs by agar well diffusion method; assay type: functional; details: MTCC 3019, 24 h
Recorded Metric: MIC (µg/mL)
Entry rule: numbers only, all in µg/mL.

Guide cases for MIC, answers given:
# Molecule, MIC (µg/mL)
measured = [
    ("CCCCCC[N+](C)(C)CCCCCCCCCCC(=O)OC.[Cl-]", 15.6),
    ("COC(=O)CCCCCCCCCC[N+](C)(C1CCCCC1)C1CCCCC1.[Cl-]", 31.2),
    ("Clc1ccc(COC(Cn2ccnc2)c2ccc(Cl)cc2Cl)c(Cl)c1 (configuration not stated)", 7.8),
]

Now for the molecule whose MIC we want.
Which MIC is reported for this molecule? CCCCCC[N+](C)(CCCCCCCCCCC(=O)OC)CCCCCCCCCCC(=O)OC.[Cl-]
15.6

---

test system: Staphylococcus aureus; assay: Bactericidal activity against Staphylococcus aureus MLS16 MTCC 2940 after 24 hrs by serial dilution method; format: functional; settings: MLS16 MTCC 2940, 24 h
Recorded Metric: MBC (µg/mL)
Entry rule: numbers only, all in µg/mL.

Guide cases for MBC, answers given:
# Compound, MBC, µg/mL
records = [
    ("O=C(O)c1cn(C2CC2)c2cc(N3CCNCC3)c(F)cc2c1=O [CIPROFLOXACIN]", 0.9),
    ("CCCCCCCCCCCC[N+](C)(C)CCCCCCCCCCC(=O)OC.[Cl-]", 31.2),
]

Now for the compound whose MBC we want.
Which MBC is reported for this compound? CCCCCCCC[N+](C)(CCCCCCCC)CCCCCCCCCCC(=O)OC.[Cl-]
15.6

---

Quick reference for MFC among some compounds
test system: Nakaseomyces glabratus; experiment: Fungicidal activity against Candida glabrata MTCC 3019 after 24 hrs by serial dilution method; assay type: functional; settings: MTCC 3019, 24 h
Entry rule: numbers only, all in µg/mL.

Guide cases for MFC, answers given:
# Compound, Value
rows = [
    ("CCCCCC[N+](C)(C)CCCCCCCCCCC(=O)OC.[Cl-]", 31.2),
    ("CCCCCCCCCCCC[N+](C)(C)CCCCCCCCCCC(=O)OC.[Cl-]", 31.2),
    ("CCCCCCNCCCCCCCCCCC(=O)OC", 31.2),
    ("CCCCCCCC[N+](C)(CCCCCCCC)CCCCCCCCCCC(=O)OC.[Cl-]", 31.2),
]

Which MFC is reported for this compound? CCCCCC[N+](C)(CCCCCCCCCCC(=O)OC)CCCCCCCCCCC(=O)OC.[Cl-]
31.2

Which MFC is reported for this compound? COC(=O)CCCCCCCCCC[N+](C)(C1CCCCC1)C1CCCCC1.[Cl-]
62.5

Which MFC is reported for this compound? Clc1ccc(COC(Cn2ccnc2)c2ccc(Cl)cc2Cl)c(Cl)c1 (configuration not stated)
15.6

---

Quick reference for MIC among some molecules
test system: Candida albicans; experiment: Antimicrobial activity against Candida albicans MTCC 854 assessed as growth inhibition after 24 hrs by agar well diffusion method; type: functional; settings: MTCC 854, 24 h
Please provide the amount together with its unit, number first.

# Molecule, Tested System, Value
rows = [
    ("CCCCCCCCCCCC[N+](C)(C)CCCCCCCCCCC(=O)OC.[Cl-]", "Candida albicans", "31.2 µg/mL"),
    ("CCCCCC[N+](C)(C)CCCCCCCCCCC(=O)OC.[Cl-]", "Candida albicans", "15.6 µg/mL"),
]

Now for the molecule whose MIC we want.
Which MIC is reported for this molecule? Clc1ccc(COC(Cn2ccnc2)c2ccc(Cl)cc2Cl)c(Cl)c1 (configuration not stated) [MICONAZOLE]
7.8 µg/mL

---

test system: Pichia kudriavzevii; assay: Fungicidal activity against Candida krusei MTCC 3020 after 24 hrs by serial dilution method; assay type: functional; conditions: MTCC 3020, 24 h
Quick reference for MFC among some compounds
Please provide the amount together with its unit, number first.

# Compound, MFC
measured = [
    ("Clc1ccc(COC(Cn2ccnc2)c2ccc(Cl)cc2Cl)c(Cl)c1 (configuration not stated)", "7.8 µg/mL"),
]

Which MFC is reported for this compound? CCCCCC[N+](C)(CCCCCCCCCCC(=O)OC)CCCCCCCCCCC(=O)OC.[Cl-]
62.5 µg/mL

---

test system: Nakaseomyces glabratus; test: Antimicrobial activity against Candida glabrata MTCC 3019 assessed as growth inhibition after 24 hrs by agar well diffusion method; type: functional; details: MTCC 3019, 24 h
Recorded Metric: MIC (µg/mL)
Entry rule: numbers only, all in µg/mL.

Guide cases for MIC, answers given:
# Smi, MIC (µg/mL)
records = [
    ("CCCCCCNCCCCCCCCCCC(=O)OC", 31.2),
    ("CCCCCCCC[N+](C)(CCCCCCCC)CCCCCCCCCCC(=O)OC.[Cl-]", 31.2),
]

Now for the molecule whose MIC we want.
Which MIC is reported for this molecule? CCCCCCCCCCCC[N+](C)(C)CCCCCCCCCCC(=O)OC.[Cl-]
31.2

---

test system: Staphylococcus aureus; experiment: Bactericidal activity against Staphylococcus aureus MLS16 MTCC 2940 after 24 hrs by serial dilution method; format: functional; details: MLS16 MTCC 2940, 24 h
Quick reference for MBC among some compounds

Form: Entry = CCCCCCCCCCCCCCCCCCNCCCCCCCCCCC(=O)OC | System = Staphylococcus aureus | MBC = ____
> 125 µg/mL

Form: Entry = CCCCCCCCCCCCN(CCCCCCCCCCC(=O)OC)CCCCCCCCCCC(=O)OC | System = Staphylococcus aureus | MBC = ____
> 125 µg/mL

Form: Entry = CCCCCCCCCCCCNCCCCCCCCCCC(=O)OC | System = Staphylococcus aureus | MBC = ____
> 125 µg/mL

---

Quick reference for MIC among some compounds
test system: Candida albicans; test: Antimicrobial activity against Candida albicans MTCC 854 assessed as growth inhibition after 24 hrs by agar well diffusion method; format: functional; settings: MTCC 854, 24 h
Entry rule: numbers only, all in µg/mL.

# Smi, Tested System, Recorded Metric, Unit Info, Value
data = [
    ("COC(=O)CCCCCCCCCC[N+](C)(C1CCCCC1)C1CCCCC1.[Cl-]", "Candida albicans", "MIC", "µg/mL", 31.2),
    ("CCCCCC[N+](C)(CCCCCCCCCCC(=O)OC)CCCCCCCCCCC(=O)OC.[Cl-]", "Candida albicans", "MIC", "µg/mL", 31.2),
    ("CCCCCCNCCCCCCCCCCC(=O)OC", "Candida albicans", "MIC", "µg/mL", 15.6),
]

Which MIC is reported for this compound? CCCCCCCC[N+](C)(CCCCCCCC)CCCCCCCCCCC(=O)OC.[Cl-]
15.6

---

tested on: Pichia kudriavzevii; experiment: Fungicidal activity against Candida krusei MTCC 3020 after 24 hrs by serial dilution method; assay type: functional; settings: MTCC 3020, 24 h
Quick reference for MFC among some molecules

Guide cases for MFC, answers given:
# Smi, MFC
data = [
    ("CCCCCCNCCCCCCCCCCC(=O)OC", "31.2 µg/mL"),
    ("COC(=O)CCCCCCCCCC[N+](C)(C1CCCCC1)C1CCCCC1.[Cl-]", "62.5 µg/mL"),
    ("CCCCCCCC[N+](C)(CCCCCCCC)CCCCCCCCCCC(=O)OC.[Cl-]", "31.2 µg/mL"),
    ("CCCCCC[N+](C)(C)CCCCCCCCCCC(=O)OC.[Cl-]", "31.2 µg/mL"),
]

Now for the molecule whose MFC we want.
Which MFC is reported for this molecule? CCCCCCCCCCCC[N+](C)(C)CCCCCCCCCCC(=O)OC.[Cl-]
62.5 µg/mL
